target: UniProtKB Q00987; experiment: MDM2 binding screen of Libraries 3 and 4: displacement of fluorescent probe F-M8 at 750 nM macrocycle; conditions: Panel b, Library 3: 63 scaffolds combinatorially acylated with 15 carboxylic acids at 30 picomole scale; displacement of fluorescent peptide probe; macrocycle 750 nM
Sequence (Q00987 whole entry): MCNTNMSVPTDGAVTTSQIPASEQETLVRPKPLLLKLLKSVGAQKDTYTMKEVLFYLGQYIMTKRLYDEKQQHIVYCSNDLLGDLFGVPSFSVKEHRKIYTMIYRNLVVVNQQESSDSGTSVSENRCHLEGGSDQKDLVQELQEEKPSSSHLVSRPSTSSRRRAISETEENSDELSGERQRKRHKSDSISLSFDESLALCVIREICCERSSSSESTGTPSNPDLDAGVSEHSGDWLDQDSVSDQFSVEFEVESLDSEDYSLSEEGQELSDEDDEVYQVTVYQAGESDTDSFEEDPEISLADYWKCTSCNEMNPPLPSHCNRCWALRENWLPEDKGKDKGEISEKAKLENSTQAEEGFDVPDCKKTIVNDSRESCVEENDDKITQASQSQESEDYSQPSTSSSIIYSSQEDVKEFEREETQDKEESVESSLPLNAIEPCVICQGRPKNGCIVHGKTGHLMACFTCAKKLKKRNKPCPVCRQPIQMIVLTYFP
Parameter: fraction of fluorescent probe displaced

Some compounds with recorded fraction of fluorescent probe displaced:
In [3]: df
Out[3]:
                                   compound  meas_value
0  Cn1cc(C[C@@H]2NC(=O)[C@@H](CNC(=O)CCS(=O)(=O)c3ccccc3)NC(=O)[C@H]3CCCN(C3)C(=O)CCSSCCNC2=O)c2ccccc21       0.015
1  Cn1cc(C[C@@H]2NC(=O)[C@@H](CNC(=O)c3ccc(Cl)s3)NC(=O)[C@H]3CCCN(C3)C(=O)CCSSCCNC2=O)c2ccccc21       0.008
2  CN1C(=O)[C@H](CNC(=O)c2cccc(Oc3ccccc3)c2)NC(=O)[C@H]2CCCN(C2)C(=O)CCSSCCNC(=O)[C@@H]1Cc1c[nH]c2ccccc12      -0.019
3  O=C1CCSSCCNC(=O)[C@H](Cc2ccc3ccccc3c2)NC(=O)[C@@H](CNC(=O)c2cccc(Oc3ccccc3)c2)NC(=O)C2(CC2)CN1    -0.00533
4  O=C(/C=C/c1ccc(OCc2ccccc2)cc1)NCCN1CC(=O)N[C@@H](Cc2ccc3ccccc3c2)C(=O)NCCSSCCC(=O)N2CCC[C@@H](C2)C1=O       0.035

I. CC(Oc1cccc(Cl)c1)C(=O)NC[C@@H]1NC(=O)C2(CC2)CNC(=O)CCSSCCNC(=O)[C@H](Cc2cccc3ccccc23)NC1=O (stereo partly shown)
II. O=C1CCSSCCNC(=O)[C@@H](Cc2c[nH]c3ccccc23)NC(=O)[C@@H](CNC(=O)c2ccc3ccccc3c2)NC(=O)C2(CC2)CN1
### Prompt I'm curious whether I or II has the smaller fraction of fluorescent probe displaced number. Which is it? Answer by quoting the chosen item's label.
### Response I

I. O=C(NC[C@H]1NC(=O)[C@H]2CCCN(C2)C(=O)CCSSCCNC(=O)[C@H](Cc2cccc3ccccc23)NC1=O)c1ccc(Cl)cc1
II. Cn1cc(C[C@@H]2NC(=O)CN(CCNC(=O)CCS(=O)(=O)c3ccccc3)C(=O)[C@H]3CCCN(C3)C(=O)CCSSCCNC2=O)c2ccccc21
III. O=C1CCSSCCNC(=O)[C@H](Cc2c[nH]c3ccccc23)NC(=O)[C@@H](CNC(=O)c2cccc(Oc3ccccc3)c2)NC(=O)C2(CC2)CN1
### Prompt Sort entries by fraction of fluorescent probe displaced from minimum to maximum value. Reply format: the labels, ordered as requested.
### Response II, III, I

a. O=C1CCSSCCNC(=O)[C@H](Cc2c[nH]c3ccccc23)NC(=O)CN(CCNC(=O)c2ccc(Cl)cc2)C(=O)C2(CC2)CN1
b. O=C1CN(CCNC(=O)C2COc3ccccc3O2)C(=O)[C@@H]2CN(CCO2)C(=O)CCSSCCNC(=O)[C@H](Cc2c[nH]c3cc(Cl)ccc23)N1 (stereo partly shown)
c. Cn1cc(C[C@@H]2NC(=O)[C@H](CNC(=O)/C=C/c3ccc(OCc4ccccc4)cc3)NC(=O)C3(CC3)CNC(=O)CCSSCCNC2=O)c2ccccc21
### Prompt Give the ascending ranking of the items by reported fraction of fluorescent probe displaced. As an answer, provide the labels arranged in the order called for.
### Response a, c, b
(a: 0.00133, c: 0.008, b: 0.021)

All figures here come from paper PMC9250534.
